The binders listed here are annotated with their HEK-Blue Activity Assay Ec50 (pM), +300 nM hu IL-18BP.
Molecular target: T1, human IL-18 binding protein (IL-18BP) (human, UniProt O95998 31-194)
T1 sequence (looked up): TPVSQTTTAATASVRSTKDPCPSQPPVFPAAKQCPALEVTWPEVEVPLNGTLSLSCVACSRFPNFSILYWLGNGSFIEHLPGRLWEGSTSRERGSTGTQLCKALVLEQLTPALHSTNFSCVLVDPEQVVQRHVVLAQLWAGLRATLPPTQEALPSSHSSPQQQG
Assay: cell-based or functional assay
The reply should be a number in pM, with the unit left off.

Solved entries (count: 2):
INSERT INTO results (binder, numeric_readout) VALUES
  ('IL-18 variant G3T, M60K, D157E (ligand) YFTKLESKLSVIRNLNDQVLFIDQGNRPLFEDMTDSDMRDNAPRTIFIISMYKDSQPRGKAVTISVKSEKISTLSSENKIISFKEMNPPDNIKDTKSDIIFFQRSVPGHDNKMQFESSSYEGYFLASEKERDLFKLILKKEDELGDRSIMFTVQNEE', 2.77),
  ('Comparator 1 (human IL-18 variant M51K, K53S, Q56L, P57A, M60L, S105D, D110S, N111R) (ligand) YFGKLESKLSVIRNLNDQVLFIDQGNRPLFEDMTDSDCRDNAPRTIFIISKYSDSLARGLAVTISVKCEKISTLSCENKIISFKEMNPPDNIKDTKSDIIFFQRDVPGHSRKMQFESSSYEGYFLACEKERDLFKLILKKEDELGDRSIMFTVQNED', 0.09);

// query # input binder: IL-18 variant G3T, E6K, K53A (ligand, also called G3T, K53A, E6K) YFTKLKSKLSVIRNLNDQVLFIDQGNRPLFEDMTDSDMRDNAPRTIFIISMYADSQPRGMAVTISVKSEKISTLSSENKIISFKEMNPPDNIKDTKSDIIFFQRSVPGHDNKMQFESSSYEGYFLASEKERDLFKLILKKEDELGDRSIMFTVQNED ; wanted: its HEK-Blue Activity Assay Ec50 (pM), +300 nM hu IL-18BP
// result 1.49
